# Target Desc: αvβ3 (Homo sapiens, UniProt P05106+P06756)
# Construct: expressed in transfected cells; host or cells: K562
# Sequence (P06756 31-889 limits assumed): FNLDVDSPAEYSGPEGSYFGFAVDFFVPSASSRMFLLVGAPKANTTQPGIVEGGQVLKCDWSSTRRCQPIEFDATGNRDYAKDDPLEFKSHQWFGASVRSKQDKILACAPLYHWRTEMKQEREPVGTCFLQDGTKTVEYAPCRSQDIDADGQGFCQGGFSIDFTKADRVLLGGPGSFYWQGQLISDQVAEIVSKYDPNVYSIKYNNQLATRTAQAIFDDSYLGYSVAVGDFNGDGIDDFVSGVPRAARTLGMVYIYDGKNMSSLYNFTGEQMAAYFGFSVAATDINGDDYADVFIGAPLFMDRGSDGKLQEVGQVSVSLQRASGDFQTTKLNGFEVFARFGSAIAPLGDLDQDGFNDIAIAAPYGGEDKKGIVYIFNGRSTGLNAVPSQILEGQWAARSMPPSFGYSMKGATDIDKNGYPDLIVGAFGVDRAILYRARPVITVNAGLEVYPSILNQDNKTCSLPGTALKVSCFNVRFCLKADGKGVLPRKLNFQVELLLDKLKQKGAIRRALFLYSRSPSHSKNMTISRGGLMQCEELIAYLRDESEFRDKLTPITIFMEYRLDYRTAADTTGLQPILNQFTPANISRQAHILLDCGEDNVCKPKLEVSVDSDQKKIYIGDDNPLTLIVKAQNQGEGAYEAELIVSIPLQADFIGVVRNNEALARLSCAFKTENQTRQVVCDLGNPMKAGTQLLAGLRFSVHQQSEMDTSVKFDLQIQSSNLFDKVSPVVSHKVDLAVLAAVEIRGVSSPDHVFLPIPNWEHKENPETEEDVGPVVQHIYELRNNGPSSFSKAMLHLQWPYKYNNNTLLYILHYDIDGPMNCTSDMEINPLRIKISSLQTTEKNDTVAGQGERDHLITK
# Sequence (P06756 891-1048 partner limits assumed): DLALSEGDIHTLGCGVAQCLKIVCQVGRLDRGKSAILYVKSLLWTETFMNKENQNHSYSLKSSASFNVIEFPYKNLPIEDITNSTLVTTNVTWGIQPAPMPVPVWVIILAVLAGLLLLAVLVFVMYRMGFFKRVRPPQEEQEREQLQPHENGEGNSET
# Sequence (P05106 27-788): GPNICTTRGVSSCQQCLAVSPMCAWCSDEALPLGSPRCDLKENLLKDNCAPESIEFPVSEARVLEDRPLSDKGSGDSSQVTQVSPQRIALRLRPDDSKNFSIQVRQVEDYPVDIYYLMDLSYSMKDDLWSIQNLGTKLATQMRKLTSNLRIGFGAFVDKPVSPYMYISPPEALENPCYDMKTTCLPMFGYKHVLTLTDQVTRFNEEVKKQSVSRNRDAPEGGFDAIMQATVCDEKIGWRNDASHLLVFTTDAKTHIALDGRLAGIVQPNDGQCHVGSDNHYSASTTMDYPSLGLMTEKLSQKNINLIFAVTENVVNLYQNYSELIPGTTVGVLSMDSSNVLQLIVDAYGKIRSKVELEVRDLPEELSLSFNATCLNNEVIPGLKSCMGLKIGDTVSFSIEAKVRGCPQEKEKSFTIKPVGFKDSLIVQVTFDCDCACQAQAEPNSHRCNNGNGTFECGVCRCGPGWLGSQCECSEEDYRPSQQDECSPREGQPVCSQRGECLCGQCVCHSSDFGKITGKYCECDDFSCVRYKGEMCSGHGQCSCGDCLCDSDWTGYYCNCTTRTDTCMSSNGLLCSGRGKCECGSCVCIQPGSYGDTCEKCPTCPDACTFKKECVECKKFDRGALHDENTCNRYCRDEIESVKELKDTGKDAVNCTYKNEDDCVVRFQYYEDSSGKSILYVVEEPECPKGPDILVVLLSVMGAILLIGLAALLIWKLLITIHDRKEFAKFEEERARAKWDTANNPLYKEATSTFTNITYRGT
# Protocol Details: Cell adhesion assay, K562-αvβ3 (LAP-b1)
# Assay type: cell-based
# Experimental Setup: K562-αvβ3 cells, ligand LAP-b1, 2 mM MgCl2; mean; read-out: αvβ3 pIC50 (mean affinity, cell Adhesion Assay) (converted)
This section presents molecules with their documented IC50 values.

[
  {
    "Molecule": "COCC(C)(C)Oc1cccc([C@H](CC(=O)O)CN2CC[C@@](F)(CCc3ccc4c(n3)NCCC4)C2)c1 [Example 7]",
    "IC50 [nM]": 79.4
  },
  {
    "Molecule": "O=C(O)C[C@H](CN1CC[C@@](F)(CCc2ccc3c(n2)NCCC3)C1)c1cccc(OC[C@H]2CCCO2)c1 [Example 1]",
    "IC50 [nM]": 79.4
  },
  {
    "Molecule": "O=C(O)C[C@H](CN1CC[C@@](F)(CCc2ccc3c(n2)NCCC3)C1)c1cccc(O[C@H]2CCOC2)c1 [Example 4]",
    "IC50 [nM]": 50.1
  },
  {
    "Molecule": "CO[C@H](C)COc1cccc([C@H](CC(=O)O)CN2CC[C@@](F)(CCc3ccc4c(n3)NCCC4)C2)c1 [Example 5]",
    "IC50 [nM]": 31.6
  },
  {
    "Molecule": "O=C(O)C[C@H](CN1CC[C@@](F)(CCc2ccc3c(n2)NCCC3)C1)c1cccc(OCC2COC2)c1 [Example 12]",
    "IC50 [nM]": 63.1
  }
]

* * *

# Target Desc: αvβ6 (Homo sapiens, UniProt P06756+P18564)
# Construct: expressed in transfected cells; host or cells: K562
# Sequence (P18564 22-788, one chain of several): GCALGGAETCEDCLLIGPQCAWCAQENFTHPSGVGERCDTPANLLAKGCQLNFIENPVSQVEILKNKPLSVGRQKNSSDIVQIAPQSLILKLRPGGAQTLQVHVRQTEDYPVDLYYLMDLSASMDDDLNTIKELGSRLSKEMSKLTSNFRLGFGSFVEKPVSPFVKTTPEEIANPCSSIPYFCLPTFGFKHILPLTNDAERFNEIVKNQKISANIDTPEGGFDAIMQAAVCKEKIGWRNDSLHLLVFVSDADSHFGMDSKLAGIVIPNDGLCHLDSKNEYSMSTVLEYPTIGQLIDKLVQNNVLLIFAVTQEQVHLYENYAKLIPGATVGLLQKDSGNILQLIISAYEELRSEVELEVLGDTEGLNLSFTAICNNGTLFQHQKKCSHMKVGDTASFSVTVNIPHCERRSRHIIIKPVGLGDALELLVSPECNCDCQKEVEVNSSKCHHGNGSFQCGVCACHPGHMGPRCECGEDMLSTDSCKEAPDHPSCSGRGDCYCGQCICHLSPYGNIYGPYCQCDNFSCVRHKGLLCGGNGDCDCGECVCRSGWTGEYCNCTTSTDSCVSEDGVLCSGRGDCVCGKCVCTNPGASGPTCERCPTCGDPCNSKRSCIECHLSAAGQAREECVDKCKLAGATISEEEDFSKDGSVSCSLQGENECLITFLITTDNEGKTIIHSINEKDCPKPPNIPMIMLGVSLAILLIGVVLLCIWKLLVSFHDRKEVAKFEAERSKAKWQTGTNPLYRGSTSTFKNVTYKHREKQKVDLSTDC
# Protocol Details: Cell adhesion assay, K562-αvβ6 (LAP-b1)
# Assay type: cell-based
# Experimental Setup: K562-αvβ6 cells, ligand LAP-b1, 2 mM MgCl2; mean; read-out: αvβ6 pIC50 (mean affinity, cell Adhesion Assay) (converted)
This section presents molecules with their documented IC50 values.

[
  {
    "Molecule": "O=C(O)C[C@H](CN1CC[C@@](F)(CCc2ccc3c(n2)NCCC3)C1)c1cccc(OCC2COC2)c1 [Example 12]",
    "IC50 [nM]": 15.8
  },
  {
    "Molecule": "O=C(O)C[C@H](CN1CC[C@@](F)(CCc2ccc3c(n2)NCCC3)C1)c1cccc(C2CCOC2)c1 (single isomer, unassigned; isomer 1) [Example 10]",
    "IC50 [nM]": 12.6
  },
  {
    "Molecule": "O=C(O)C[C@H](CN1CC[C@@](F)(CCc2ccc3c(n2)NCCC3)C1)c1cccc(OC2COC2)c1 [Example 8]",
    "IC50 [nM]": 12.6
  }
]

* * *

# Target Desc: αvβ5 (Homo sapiens, UniProt P06756+P18084)
# Construct: expressed in transfected cells; host or cells: K562
# Sequence (P18084 24-799, one chain of several): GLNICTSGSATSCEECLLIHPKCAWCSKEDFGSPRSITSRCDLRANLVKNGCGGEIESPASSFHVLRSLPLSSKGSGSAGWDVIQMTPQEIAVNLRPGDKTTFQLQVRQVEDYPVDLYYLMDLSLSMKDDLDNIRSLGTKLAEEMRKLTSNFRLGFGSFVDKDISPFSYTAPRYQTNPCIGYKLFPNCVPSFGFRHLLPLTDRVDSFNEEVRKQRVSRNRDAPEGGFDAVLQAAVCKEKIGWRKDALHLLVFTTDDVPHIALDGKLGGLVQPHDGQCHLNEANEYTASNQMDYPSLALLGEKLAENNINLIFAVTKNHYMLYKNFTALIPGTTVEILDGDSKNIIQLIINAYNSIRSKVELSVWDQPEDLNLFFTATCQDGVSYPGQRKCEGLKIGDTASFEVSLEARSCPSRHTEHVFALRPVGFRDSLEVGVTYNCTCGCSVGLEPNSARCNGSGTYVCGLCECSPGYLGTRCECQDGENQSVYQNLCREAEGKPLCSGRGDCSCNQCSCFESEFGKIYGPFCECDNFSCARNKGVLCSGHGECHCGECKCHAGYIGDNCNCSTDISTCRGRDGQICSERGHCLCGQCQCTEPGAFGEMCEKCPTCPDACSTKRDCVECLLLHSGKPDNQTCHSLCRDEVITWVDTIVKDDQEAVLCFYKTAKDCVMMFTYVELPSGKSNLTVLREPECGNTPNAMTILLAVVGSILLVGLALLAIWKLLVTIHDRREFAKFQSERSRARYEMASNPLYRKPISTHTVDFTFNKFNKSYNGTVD
# Protocol Details: Cell adhesion assay, K562-αvβ5 (Vitronectin)
# Type: cell-based
# Experimental Setup: K562-αvβ5 cells, ligand Vitronectin, 2 mM MgCl2
Recorded Endpoint: αvβ5 pIC50 (mean affinity, cell Adhesion Assay)

[
  {
    "Compound": "O=C(O)CC(O)(CC(=O)O)C(=O)O.O=C(O)C[C@H](CN1CC[C@@](F)(CCc2ccc3c(n2)NCCC3)C1)c1cccc(O[C@@H]2CCOC2)c1 [Example 16]",
    "Measurement": 7.4
  },
  {
    "Compound": "O=C(O)/C=C\\C(=O)O.O=C(O)C[C@H](CN1CC[C@@](F)(CCc2ccc3c(n2)NCCC3)C1)c1cccc(O[C@@H]2CCOC2)c1 [Example 17]",
    "Measurement": 8.1
  },
  {
    "Compound": "O=C(O)CC(O)(CC(=O)O)C(=O)O.O=C(O)C[C@H](CN1CC[C@@](F)(CCc2ccc3c(n2)NCCC3)C1)c1cccc(O[C@H]2CCOC2)c1 [Example 18]",
    "Measurement": 7.5
  },
  {
    "Compound": "O=C(O)/C=C\\C(=O)O.O=C(O)C[C@H](CN1CC[C@@](F)(CCc2ccc3c(n2)NCCC3)C1)c1cccc(O[C@H]2CCOC2)c1 [Example 19]",
    "Measurement": 7.5
  }
]
